melting point overview

INSERT INTO results (compound, readout_label, reading) VALUES
  ('CC(C)c1nsc(N2CCN(C(=O)Nc3noc4ccccc34)CC2)n1', 'melting point', '178 to 179 °C');

Look up melting point: Cn1c2cccc(Br)c2c2nc3ccccc3nc21
208 to 209 °C

Look up melting point: CCCc1c(OCCCCCOc2coc(CO)cc2=O)ccc(C(C)=O)c1O
94 to 95 °C

Look up melting point: COC1C=C(C)C2(OC(=O)c3ccc([N+](=O)[O-])cc3)CC(C)(C)C1O2 (stereo not drawn)
95 to 95.5 °C

###

readout_label: melting point

Some compounds with known melting point results, for comparison:
INSERT INTO measurements (compound, reading) VALUES
  ('COC[C@H]1CN(c2ccc(CCC[C@@H](C)O)cc2)C(=O)O1', '65 °C'),
  ('O=C(C=CCC(Nc1cc(Cl)cc(Cl)c1I)C(=O)OCc1ccccc1)Nc1ccccc1 (configuration not stated)', '146 to 148 °C'),
  ('COc1ccc(Cn2nc3oc(=O)cc(C)c3c2C)cc1', '169 to 172 °C'),
  ('O=C(CI)OCc1ccc([N+](=O)[O-])cc1', '62.5 to 63.5 °C'),
  ('COc1ccc(C(=O)c2ccccc2N)cc1', '76 to 77 °C'),
  ('CCN(CC)CC1CCCCN1CCNC(=O)N1c2ccc(C)cc2C(=O)Nc2cccnc21 (configuration not stated)', '148 to 150 °C');

Now look at this one.
Look up melting point: O=C(O)C(=O)CC(=O)c1cccn1Cc1ccc2ccccc2c1
160 to 162 °C

###

readout_label: melting point

INSERT INTO measurements (compound, reading) VALUES
  ('COC(=O)CCCc1cc2cc(Cl)ccc2n1S(=O)(=O)c1ccc2c(c1)OCCN2C', '139 to 140 °C');

Look up melting point: COc1ccc2sc(C(=O)Nc3ccc(CC(=O)O)cc3)c(OC(C)C)c2c1
196 °C

Look up melting point: CC(C#Cc1ccc(Oc2c(F)cccc2F)o1)N(O)C(N)=O (stereo unspecified)
161 °C

###

melting point overview

Some molecules with known melting point results, for comparison:
INSERT INTO measurements (molecule, readout_label, reading) VALUES
  ('COc1ccc(C(=CC#N)c2ccc(OC)c(OC)c2)cc1NC(C)=O', 'melting point', '139 to 141 °C'),
  ('C#CCSc1cc(C(=O)O)cc(S(N)(=O)=O)c1Oc1ccccc1', 'melting point', '197 to 198 °C'),
  ('CCOC(=O)c1cccc(-c2ccnc(OCCc3ccc(OC)c(OC)c3)n2)c1', 'melting point', '94 to 95 °C'),
  ('C[C@H](N=Cc1ccc(OCc2cccc(F)c2)cc1)C(N)=O', 'melting point', '112 °C'),
  ('COc1nc(C)nc(NC(=O)NS(=O)(=O)c2cccnc2OC2CCCC2)n1', 'melting point', '170 to 172 °C');

Look up melting point: O=[N+]([O-])c1ccc2oc(-c3ccc(CN4CCOCC4)s3)nc2c1
149 to 151 °C

Look up melting point: CCOC(=O)c1c(CCc2ccc(OC)cc2)oc2ccc(C#N)cc12
135 to 139 °C

Look up melting point: CS(=O)(=O)CCCCC(c1cc(Cl)ccc1F)S(=O)(=O)c1ccc(Cl)cc1 (stereo unspecified)
116 to 117 °C

Look up melting point: CC(=CCCCC(C)(C)O)c1cccc(C=Cc2cc(O)cc(O)c2)c1
55 to 60 °C

Look up melting point: CCCNCCc1ccc(NS(=O)(=O)c2ccc(Cl)cc2)cc1
137 to 140 °C

Look up melting point: CC(=O)c1c(F)cccc1N1CCN(CCCCOc2ccc3c(n2)NC(=O)CC3)CC1
64 °C

Data provenance is a melting point compilation (Tetko et al.; mined from patent text by program, amines drawn as free bases though some values may be those of a salt).
